Each entry below carries its reported shrunken log2 fold change.
# Test system: Escherichia coli TOP10
# Test summary: shrunken log2 fold change of peptide-encoding DNA abundance (4.5 h post-induction vs induction); higher = less antimicrobial activity (less host growth inhibition)
# Condition: time post-induction: 4.5 h; library: site-saturation at positions 5, 18, 19, 20
Form rule: numeric answer, no unit written next to it.

Problem: Retrieve shrunken log2 fold change measured for RRIRSRPPRLPRPRPRPGKFPRP and print it.
Result: -0.111

###

# System: Escherichia coli TOP10
# Test summary: shrunken log2 fold change of peptide-encoding DNA abundance (4.5 h post-induction vs induction); higher = less antimicrobial activity (less host growth inhibition)
# Condition: time post-induction: 4.5 h; library: site-saturation at positions 5, 18, 19, 20
Property: shrunken log2 fold change

Sequence record	Obs value
RRIRGRPPRLPRPRPRPRLAPRP	1.35

Problem: Report measured shrunken log2 fold change on Escherichia coli TOP10; entry: RRIRCRPPRLPRPRPRPKPMPRP
Result: -0.00253

Problem: Answer with shrunken log2 fold change of RRIRTRPPRLPRPRPRPDRMPRP measured for Escherichia coli TOP10.
Result: -0.0127

Problem: Give Escherichia coli TOP10 shrunken log2 fold change for the following sequence: RRIRHRPPRLPRPRPRPWMNPRP
Result: -0.0538

Problem: Lab note: Escherichia coli TOP10 assay, enter shrunken log2 fold change for RRIRWRPPRLPRPRPRPDDNPRP here
Result: 0.174

Problem: Supply shrunken log2 fold change measured with Escherichia coli TOP10 for RRIRPRPPRLPRPRPRPKNTPRP .
Result: -0.218

Problem: Report measured shrunken log2 fold change on Escherichia coli TOP10; entry: RRIRWRPPRLPRPRPRPDELPRP
Result: 0.402

Problem: Name the value of shrunken log2 fold change reported for RRIRVRPPRLPRPRPRPWRPPRP when tested on Escherichia coli TOP10.
Result: 0.328

Problem: For Escherichia coli TOP10, give shrunken log2 fold change of the listed sequence: RRIRSRPPRLPRPRPRPFNFPRP
Result: -0.112

Problem: Quote shrunken log2 fold change with test system Escherichia coli TOP10 for RRIRERPPRLPRPRPRPFHHPRP
Result: 0.0149

Problem: Give measured shrunken log2 fold change for RRIRVRPPRLPRPRPRPFVTPRP (Escherichia coli TOP10).
Result: -0.206

Problem: GET shrunken log2 fold change | system: Escherichia coli TOP10 | item: RRIRWRPPRLPRPRPRPWFDPRP
Result: 2.76

###

Each entry below lists one item and its recorded shrunken log2 fold change value.
# Tested on: Escherichia coli TOP10
# Test summary: shrunken log2 fold change of peptide-encoding DNA abundance (4.5 h post-induction vs induction); higher = less antimicrobial activity (less host growth inhibition)
# Condition: time post-induction: 4.5 h; library: site-saturation at positions 5, 18, 19, 20
Quick one: just the number, no unit, thanks!

Sequence record	Study target	Obs value
RRIRARPPRLPRPRPRPFVQPRP	Escherichia coli TOP10	-0.00645
RRIRQRPPRLPRPRPRPTASPRP	Escherichia coli TOP10	-0.0116

Pending sequence:
Problem: Indicate the recorded shrunken log2 fold change value for this sequence: RRIRQRPPRLPRPRPRPARTPRP
Result: 0.167

###

# System: Escherichia coli TOP10;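 further: peptides expressed intracellularly from a pBAD plasmid library in pooled LB shake-flask culture, induced with 0.3% L-arabinose, DNA abundance read by NGS, three biological replicates, DESeq2 with apeglm shrinkage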
# Test summary: shrunken log2 fold change of peptide-encoding DNA abundance (4.5 h post-induction vs induction); higher = less antimicrobial activity (less host growth inhibition)
# Condition: time post-induction: 4.5 h; library: site-saturation at positions 5, 18, 19, 20
# shrunken log2 fold change per entry
Answer as a number with no unit attached.

Sequence record	Property	Obs value
RRIRIRPPRLPRPRPRPCLFPRP	shrunken log2 fold change	-0.639
RRIRLRPPRLPRPRPRPVMSPRP	shrunken log2 fold change	-0.152
RRIRRRPPRLPRPRPRPFCLPRP	shrunken log2 fold change	0.194
RRIRCRPPRLPRPRPRPDNVPRP	shrunken log2 fold change	-0.0772
RRIRQRPPRLPRPRPRPPMRPRP	shrunken log2 fold change	0.862
RRIRCRPPRLPRPRPRPRICPRP	shrunken log2 fold change	0.183

Problem: Using known records, supply shrunken log2 fold change for RRIRLRPPRLPRPRPRPTMAPRP
Result: -0.283

Problem: Answer with the recorded shrunken log2 fold change for the sequence listed here: RRIRTRPPRLPRPRPRPMPNPRP
Result: -0.17

Problem: // Input: RRIRRRPPRLPRPRPRPQCYPRP . Output its shrunken log2 fold change only.
Result: -0.136

Problem: Give the measured shrunken log2 fold change for RRIRSRPPRLPRPRPRPSSNPRP
Result: -0.872

Problem: Look up and state reported shrunken log2 fold change for RRIRGRPPRLPRPRPRPLVCPRP
Result: 0.584

Problem: Indicate the recorded shrunken log2 fold change value for this sequence: RRIRNRPPRLPRPRPRPLFMPRP
Result: -0.235

Problem: Supply recorded shrunken log2 fold change for RRIRERPPRLPRPRPRPKQDPRP here.
Result: -0.252

Problem: Item RRIRMRPPRLPRPRPRPMFVPRP : provide shrunken log2 fold change
Result: -0.298

Problem: Determine from records and report shrunken log2 fold change for RRIRGRPPRLPRPRPRPVNWPRP
Result: 0.302

Problem: Please give the documented shrunken log2 fold change of RRIRFRPPRLPRPRPRPFRIPRP
Result: -0.687
